Data origin, for the record: ChEMBL document CHEMBL1201862

// GI50 lookup, one value per entry
Test system: MOLT-4
Measurement notes: NCI tumour cell line growth inhibition, 48 h
Active and inactive are the calls of the source. No stated cut-off is given here; in the data, active = GI50 up to about 1.1 µM and inactive = higher.

Compound	System name	GI50
COC1=C2CC(C)CC(OC)C(O)C(C)/C=C(\C)C(OC(N)=O)C(OC)/C=C\C=C(/C)C(=O)NC(=C(/C=N/N3CCCCC3)C1=O)C2=O (configuration not stated)	MOLT-4	2.62 µM (inactive)

Query GI50 for NC(=O)C(c1ccccc1)N1OC2C(=O)N(c3cccc4ccccc34)C(=O)C2C1c1c2ccccc2c(Cl)c2ccccc12 (configuration not stated)
1.44 µM (inactive)

Find the measured GI50 of CCOc1cc(C2SCC(=O)N2c2nc3cc4sc(N5C(=O)CSC5c5ccc(O)c(OCC)c5)nc4cc3s2)ccc1O (configuration not stated) and report it.
4.61 µM (inactive)

Supply reported GI50 belonging to this compound: CCCC(C(=O)Nc1cccc2nc[nH]c12)C(=O)OCC (configuration not stated)
> 100 µM (inactive)

###

System: HCC 2998
Measurement notes: NCI tumour cell line growth inhibition, 48 h
Active and inactive are the calls of the source. Rule as the data show it: active = GI50 up to about 1.1 µM and inactive = higher.
A correct response names exactly one class from active, inactive

Compound	Assigned class
Cc1nc(O)nc2c1C(NCCCN(C)C)c1cc(Cl)ccc1N2 (centres undefined)	inactive
Cc1ccc(C2=NN(C)COC2C(F)(F)F)cc1 (centres undefined)	inactive
COC(=O)C1(O)C(c2ccccc2)=NC2(C)CCCC21 (centres undefined)	inactive
COC1=C2CC(C)CC(OC)C(O)C(C)/C=C(\C)C(OC(N)=O)C(OC)/C=C\C=C(/C)C(=O)NC(=C(/C=N/N3CCCCC3)C1=O)C2=O (centres undefined)	inactive
N/C(=N/O)c1cn(C2OC(CO)C(O)C2O)c2ncnc(NO)c12 (centres undefined)	active

Name the outcome recorded for CS/C1=C(\c2ccc(C)cc2)N(c2ccccc2)C(=O)C(=O)N(c2ccccc2)/C(c2ccc(C)cc2)=C(/SC)SS1 in the assay.
inactive

Hi, do you know how CC(C)=CCc1cc2c(cc1O)OC[C@H]1c3cc4c(cc3O[C@@H]21)OCO4 came out in this test?
inactive

What classification did O=S(=O)(O)c1cc(O)c2c(O)c(/N=N/c3ccc(/C=C/c4ccc(/N=N/c5c(S(=O)(=O)O)cc6cc(S(=O)(=O)O)cc(O)c6c5O)cc4S(=O)(=O)O)c(S(=O)(=O)O)c3)c(S(=O)(=O)O)cc2c1 end up with in this test?
inactive

# lookup: test call for Cn1c(=O)oc2cc(C3CCC(=O)N3Cc3ccc(Cl)cc3)ccc21 (centres undefined)
inactive

###

Test system: NCI-H522
Measurement notes: NCI tumour cell line growth inhibition, 48 h
The source made the active and inactive calls. Rule as the data show it: active = GI50 up to about 1.1 µM and inactive = higher.
Reported GI50 values follow for various compounds

Compound	GI50
CCN(CC)C(=O)N[C@@H](CC(C)C)C(=O)NC	> 100 µM (inactive)
COC(=O)CC(=O)OSc1ccccc1	1.61 µM (inactive)
Clc1ncnc2c1ncn2CCCCCCCCCCCCn1cnc2c(Cl)ncnc21	1.48 µM (inactive)
CC(C)(c1ccccc1)c1ccc(Oc2ccc(C#N)c(C#N)c2)cc1	9.06 µM (inactive)
Sc1nnc(C(c2ccccc2)c2ccccc2)[nH]1	53.2 µM (inactive)
C[N+](C)(C)CC1CCC/C1=N\OC(=O)c1ccccc1 (configuration not stated)	> 100 µM (inactive)
CSC1=N/C(=C\c2ccc(C)cc2)C(=O)N1CN1CCCCC1	> 100 µM (inactive)
NCc1ccccc1C1CSCSC1	> 100 µM (inactive)
O=C(NCCc1ccccc1)[C@H]1CCCC[C@@H]1CCO	> 100 µM (inactive)
Cc1cc(C)c2c(=O)n(CN3CC4Nc5ccccc5C4C3)sc2n1 (configuration not stated)	4.19 µM (inactive)

Could you please provide reported GI50 for CN(C)C1COC2Cc3ccccc3C1O2 (configuration not stated) ? Thanks!
> 100 µM (inactive)

Hello, please tell me recorded GI50 for this one: CCn1nc(C)c2c1C(=O)NCC(=O)N2
> 100 µM (inactive)
